- Measured target: Potassium voltage-gated channel subfamily KQT member 1 (Homo sapiens)
- Assay: human KCNQ1 current enhancers – cell-based, thallium flux, high-throughput, primary screen (AID 2648)
- Condition notes: CHO-K1 KCNQ1, thallium flux FluxOR fluorescence, at 10 µM
Hit rate of the full screen: of about 310,000 compounds, about 1,100 (0.35%) were called active.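 The calls were made as follows: active = fluorescence ratio B-score, a plate-corrected score, at least three library SD, with initial intensity B-score within 5 SD; inactive = the rest.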 The entries come from a sample that favours actives as a whole.
Thanks in advance; please answer with one of these: active, inactive

Use the examples below as a reference point.
* Cc1cc(=O)oc2c(C)c(OCC(=O)NCCN3CCOCC3)ccc12 | inactive
* O=C(Nc1ccc(CN2CCOCC2)cc1)c1cc(Cl)ccc1Cl | inactive
* COc1ccc(C(=O)NNC(=S)NC(=O)c2ccccc2[N+](=O)[O-])cc1 | inactive
* COc1cc(Br)cc(/C=N/c2ncn[nH]2)c1O | active
* CCOC(=O)c1c(NC(=S)NC)sc2c1CCCC2 | active
* Oc1c(Cl)cc(Cl)cc1/C=N/c1ncn[nH]1 | active
* CCOC(=O)c1c(NC(=O)C2(C)Cc3ccccc3C(=O)O2)sc2c1CCCC2 (stereo unspecified) | inactive
* Cc1ccc(S(=O)(=O)N(C)C)cc1NC(=O)COC(=O)/C=C/c1cccs1 | inactive

Request: Just curious, what result did COc1ccc(C(=O)NC(=S)NNC(=O)c2c(-c3ccccc3)noc2C)cc1 get here?
Response: inactive

Request: Recorded test outcome, item Oc1ccc(Br)cc1C=Nc1ccc2[nH]ncc2c1
Response: inactive

Request: Lab log entry: COc1ccc(C(=O)NNC(=S)NC(=O)c2ccccc2)cc1 — outcome as called in the assay?
Response: active

---

- Measured target: Potassium voltage-gated channel subfamily KQT member 1 (Homo sapiens)
- Assay: human KCNQ1 current enhancers – cell-based, thallium flux, high-throughput, primary screen (AID 2648)
- Condition notes: CHO-K1 KCNQ1, thallium flux FluxOR fluorescence, at 10 µM; hits give high values
In all, about 310,000 compounds went through this assay and about 1,100 (0.35%) were called active. Only a selection was taken, and actives are over-represented in it overall.
Reported endpoint: B-score

* O=C(Oc1c(-c2ccco2)oc2ccccc2c1=O)c1cccnc1 | 15 (active)
* COC(=O)c1sccc1NS(=O)(=O)c1ccc(F)cc1F | inactive
* Nc1ncnc(Nc2cccc(Cl)c2Cl)n1 | inactive
* CCN(CC)S(=O)(=O)c1ccc(Cl)c(NC(=O)c2ccncc2)c1 | inactive
* O=c1[nH]cnc2c1c(-c1ccccc1)cn2-c1ccc(F)cc1 | inactive
* COc1ccc(-n2cc(-c3ccccc3)c3c(=S)nc[nH]c32)cc1 | 8 (active)
* CC(C)c1ccc2c(c1)c(SC(C)(C)C)c(CC(C)(C)C(=O)O)n2Cc1ccc(Cl)cc1 | 44 (active)
* CCOC(=O)CN(C(=O)COc1nc(-c2ccccc2)cc(C)c1C#N)c1ccc(F)cc1 | inactive

Request: For N#CCc1ccc(OC(=O)c2cccnc2)cc1 , write its B-score.
Response: inactive

Request: Let me know recorded B-score for O=C1N[C@@H](Cc2ccccc2)C(=O)N2[C@H]1C[C@]1(Br)c3ccccc3N(S(=O)(=O)c3ccccc3)[C@H]21 , thanks.
Response: inactive

Request: Provide one value: measured B-score of COC(=O)c1sccc1NC(=O)COc1ccc(Cl)cc1
Response: inactive

Request: Please supply the value of reported B-score for the item COc1ccc(-n2c(-c3ccc(OC)c(OC)c3)n[nH]c2=S)cc1
Response: inactive

Request: Quick one: give measured B-score for COC(=O)C1=C(C(=O)OC)[C@@H]2N(C)c3ccccc3[C@@]23C[C@@H](C(=O)OC)N(C(=O)c2ccco2)C3=N1
Response: inactive

Request: // Input: COCC(=O)N1CCc2ccc(NC(=O)c3ccccc3Cl)cc2C1 . Output its B-score only.
Response: inactive

---

- Measured target: Potassium voltage-gated channel subfamily KQT member 1 (Homo sapiens)
- Assay: human KCNQ1 current enhancers – cell-based, thallium flux, high-throughput, primary screen (AID 2648)
- Condition notes: CHO-K1 KCNQ1, thallium flux FluxOR fluorescence, at 10 µM
Hit rate of the full screen: of about 310,000 compounds, about 1,100 (0.35%) were called active.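 Rule for the calls: active = fluorescence ratio B-score, a plate-corrected score, at least three library SD, with initial intensity B-score within 5 SD; inactive = the rest.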 For the sample, actives were picked, then their nearest neighbours and some compounds at random.
Respond using exactly one of the listed classes: Y for active, N for inactive

Examples from the recorded data:
* O=C(NNC(=S)NC1CCCCC1)c1ccccc1Cl | N
* c1ccc(NCc2cccc3ccccc23)nc1 | N

Request: Status in this test for CN1CCN(S(=O)(=O)c2ccc(NC(=S)NC(=O)C3CC3)cc2)CC1 ?
Response: N

Request: # fetch the recorded call for Cc1c(C(=O)NC(C)C2CC3CCC2C3)cccc1[N+](=O)[O-] (stereo not given) here
Response: N

Request: # outcome recorded in this test, key = O=C(Nc1ccc2ccccc2c1)/C(=C/c1cccc(Br)c1)NC(=O)c1ccco1
Response: N

Request: Call for entry CC(C)C(=O)Nc1ccc(C(=O)NNC(=O)c2cccs2)cc1 :
Response: N

Request: Hi team, can someone confirm the assay call for NNc1nc2c(Cl)cccc2s1 ?
Response: N

Request: What did this assay record as the result for CN(CC(=O)Nc1ccc(Cl)cc1)C(=O)CNC(=O)c1ccc2ccccc2c1 ?
Response: N

Request: Test call for this compound, please: Cc1cccc(NC(=S)NCCN(C2CCCCC2)C2CCCC2)c1
Response: N

Request: Identify the outcome logged in this assay for the compound shown: COc1ccc(C(=O)NC(=S)NC2CCCCC2)cc1
Response: N

Request: Any idea what this test logged for Cc1ccc(C)c(NC(=O)C(OC(=O)c2ccc(C)s2)c2ccccc2)c1 (stereo not given) ?
Response: N

Request: What outcome does the record of this test show for FC(F)(F)c1ccc(CN2C[C@@H]3C(c4ccccc4)C4(c5ccccc5)CC3(C4)[C@H]2c2ccccc2)cc1 (stereo not given in full) ?
Response: N

Request: Which outcome was entered for the compound O=C(N/N=C/c1cccnc1)c1cc2ccccc2cc1O in this test?
Response: N

Request: Write down the call the test reported for this compound. Item: CCOc1ccc(Br)cc1S(=O)(=O)Nc1cccc(S(=O)(=O)N(CC)CC)c1
Response: N

Request: State the result this test recorded for CCCc1ccc(OCCNC(=O)c2ccco2)cc1 .
Response: N

Request: // param item: Cc1cccc(C(=O)NCCCN(C)CCCNC(=O)c2cccc(C)c2)c1 ; yields the recorded call
Response: N

Request: How did this test come out for Cc1cccc(C(=O)NC(=S)N(C)C2CCCCC2)c1 ?
Response: Y

---

- Measured target: Potassium voltage-gated channel subfamily KQT member 1 (Homo sapiens) (UniProt P51787)
- Sequence (P51787 whole entry, looked up): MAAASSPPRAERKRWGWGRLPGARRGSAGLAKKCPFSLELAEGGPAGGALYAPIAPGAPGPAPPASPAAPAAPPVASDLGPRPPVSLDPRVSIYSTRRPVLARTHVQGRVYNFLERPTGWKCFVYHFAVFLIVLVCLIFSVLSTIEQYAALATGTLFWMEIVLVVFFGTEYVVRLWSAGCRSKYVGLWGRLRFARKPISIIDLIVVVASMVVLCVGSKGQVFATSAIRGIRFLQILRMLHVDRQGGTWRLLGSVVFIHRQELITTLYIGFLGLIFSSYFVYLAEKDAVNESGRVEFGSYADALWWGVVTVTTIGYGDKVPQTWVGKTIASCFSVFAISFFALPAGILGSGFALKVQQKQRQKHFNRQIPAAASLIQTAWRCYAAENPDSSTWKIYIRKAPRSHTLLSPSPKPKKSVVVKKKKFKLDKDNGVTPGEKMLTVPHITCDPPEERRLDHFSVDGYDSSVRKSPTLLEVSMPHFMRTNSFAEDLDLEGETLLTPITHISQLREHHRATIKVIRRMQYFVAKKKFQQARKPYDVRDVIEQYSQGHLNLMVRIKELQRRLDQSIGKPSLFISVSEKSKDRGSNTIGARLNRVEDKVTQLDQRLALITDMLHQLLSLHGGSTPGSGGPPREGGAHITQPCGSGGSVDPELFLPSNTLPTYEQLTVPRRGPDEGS
- Assay: human KCNQ1 current enhancers – cell-based, thallium flux, high-throughput, primary screen (AID 2648)
- Condition notes: CHO-K1 KCNQ1, thallium flux FluxOR fluorescence, at 10 µM
The campaign covered roughly 310,000 compounds. About 1,100 (0.35%) were called active.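 The calls were made as follows: active = fluorescence ratio B-score, a plate-corrected score, at least three library SD, with initial intensity B-score within 5 SD; inactive = the rest.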 Only a selection was taken, and actives are over-represented in it overall.
Assign a class; possible classes are T for active, F for inactive

Example results:
- CC(Oc1ccc2ccccc2c1)C(=O)NNC(=S)NC(=O)c1ccco1 (stereo not drawn): T
- Fc1cc(F)c2nc(Nc3nc4c(F)cccc4s3)sc2c1: T

Request: Recorded test call requested for CCc1ccc(NC(=O)COC(=O)c2cccs2)cc1
Response: F
